Assignment: determine reported GI50 for the given compounds.
Tested on: T47D
Assay: NCI tumour cell line growth inhibition, 48 h
Where a name gives a salt, the structure may show the parent alone. Calls of active or inactive are those of the source. No stated cut-off is given here; in the data, active = GI50 up to about 1.1 µM and inactive = higher.

**Q:** Form field: reported GI50 of COC1C(=O)CCC2(CO2)C1(O)C1(C)OC1CC=C(C)C (stereo unspecified)
**A:** > 100 µM (inactive)

**Q:** Form field: reported GI50 of C[N+]12CCCCC1C(CN1C(=O)c3ccccc3C1=O)CCC2 (stereo unspecified)
**A:** > 100 µM (inactive)

**Q:** Form field: reported GI50 of CCNCC(O)c1ccc(N)c([N+](=O)[O-])c1 (stereo unspecified)
**A:** > 100 µM (inactive)

**Q:** Form field: reported GI50 of `O=C(c1cscc1CCc1ccccc1)c1cscc1CCc1ccccc1`
**A:** 11.6 µM (inactive)

**Q:** Form field: reported GI50 of `O=C(/C=C/c1ccc(C(F)(F)F)cc1)c1c([O-])on[n+]1-c1ccccc1`
**A:** 1.8 µM (inactive)

**Q:** Form field: reported GI50 of `N/N=C1N=C(Cl)/C(=C/c2ccco2)N\1`
**A:** 40.4 µM (inactive)

**Q:** Form field: reported GI50 of `Cc1cc(N)c2cc(NC(=O)Nc3ccc4nc(C)cc(N)c4c3)ccc2n1`
**A:** > 100 µM (inactive)

**Q:** Form field: reported GI50 of `CC(=O)NNc1nc(C)c(C(/C=C/c2ccc([N+](=O)[O-])cc2)=N/NC(N)=O)s1`
**A:** > 100 µM (inactive)

**Q:** Form field: reported GI50 of `CCOC(=O)N(C)C1(c2ccccc2)CCN(CCCC(=O)c2ccc(F)cc2)CC1`
**A:** 61.1 µM (inactive)

**Q:** Form field: reported GI50 of `CCOC(=O)c1c2ccccc2n2c(=O)n(-c3ccc(OC)cc3)nnc12`
**A:** 24.3 µM (inactive)

**Q:** Form field: reported GI50 of `NS(=O)(=O)c1nnc(NS(=O)(=O)c2cccc3cccnc23)s1`
**A:** > 100 µM (inactive)

**Q:** Form field: reported GI50 of CC1CC(=O)N2CCCNC2=C1C#N (stereo unspecified)
**A:** > 100 µM (inactive)

**Q:** Form field: reported GI50 of `Nc1nc(Cl)cc(NC2(CO)CCC2)n1`
**A:** > 100 µM (inactive)

**Q:** Form field: reported GI50 of `CC(=O)Nc1cc(Cl)cc(Cl)c1O`
**A:** > 100 µM (inactive)

**Q:** Form field: reported GI50 of `CC(C)Cn1cnnc1NS(=O)(=O)c1cc(C(=O)NN)c(Cl)cc1S`
**A:** > 10 µM (inactive)

**Q:** Form field: reported GI50 of `O=[N+]([O-])c1cccc2nccc(NCCN3CCOCC3)c12`
**A:** 23 µM (inactive)

**Q:** Form field: reported GI50 of NC1CC(=O)c2c(Cl)sc(Cl)c21 (stereo unspecified)
**A:** 1.74 µM (inactive)

**Q:** Form field: reported GI50 of `N=c1oc2ccc(Cl)cc2cc1C(=O)NC1CCCCC1`
**A:** 66.2 µM (inactive)

**Q:** Form field: reported GI50 of Cc1ccc([S+]([O-])c2sccc2C=O)cc1 (stereo unspecified)
**A:** 43.7 µM (inactive)

**Q:** Form field: reported GI50 of `O=C(CSCC(=O)N/N=C/c1ccncc1)N/N=C/c1ccncc1`
**A:** > 100 µM (inactive)

**Q:** Form field: reported GI50 of `COC(=O)c1ccccc1CC1Cc2cc3c(cc2C1)CCC3`
**A:** 50.9 µM (inactive)

**Q:** Form field: reported GI50 of `COC(=O)c1c2c(cc3c1CC1(C3)Cc3cc4c(c(C(=O)OC)c3C1)CCC4)CCC2`
**A:** > 100 µM (inactive)

**Q:** Form field: reported GI50 of N#CCC12CC=CCC1=C(O)C(=O)c1ccc(O)cc12 (stereo unspecified)
**A:** > 100 µM (inactive)

**Q:** Form field: reported GI50 of `C=C(C[C@@H](O)[C@H](C)NC(=O)OCc1ccccc1)C(=O)OC(C)(C)C`
**A:** 13.1 µM (inactive)

**Q:** Form field: reported GI50 of `CN(C)c1cccc(NC2=NCCO2)c1`
**A:** 69.2 µM (inactive)

**Q:** Form field: reported GI50 of CNNCc1ccc(C(=O)NC(C)C)cc1 [PROCARBAZINE HYDROCHLORIDE]
**A:** > 500 µM (inactive)
